Target: Influenza A virus M2 proton channel (A/TW/4845/1999 H1N1)
Assay: M2 proton channel binding, NMR based, influenza A virus H1N1 strain (AID 1549)
Conditions: NMR binding screen, M2 protein
Active and inactive are the calls of the source. The rule behind the calls is not given here.
measured_quantity: Kd

- molecule: "COc1ccc(Cc2nnc3c4cnn(C)c4ncn23)cc1"
  target_desc: "Influenza A virus M2 proton channel (A/TW/4845/1999 H1N1)"
  measured_quantity: "Kd"
  value_observed: "> 4 mM (inactive)"
- molecule: "Cn1cc(Cl)c(C(=O)NC2CCCC2)n1"
  target_desc: "Influenza A virus M2 proton channel (A/TW/4845/1999 H1N1)"
  measured_quantity: "Kd"
  value_observed: "> 4 mM (inactive)"
- molecule: "CCOC(=O)C1C(=O)C2CCN1CC2 (stereo not drawn)"
  target_desc: "Influenza A virus M2 proton channel (A/TW/4845/1999 H1N1)"
  measured_quantity: "Kd"
  value_observed: "> 4 mM (inactive)"
- molecule: "COC(=O)[C@@H]1C(O)CC[C@H]2CN3CCc4c([nH]c5ccccc45)[C@@H]3C[C@@H]21 (stereo partly drawn)"
  target_desc: "Influenza A virus M2 proton channel (A/TW/4845/1999 H1N1)"
  measured_quantity: "Kd"
  value_observed: "> 4 mM (inactive)"
- molecule: "Cc1cc(C(=O)NC(C)c2ccncc2)cs1 (stereo not drawn)"
  target_desc: "Influenza A virus M2 proton channel (A/TW/4845/1999 H1N1)"
  measured_quantity: "Kd"
  value_observed: "> 4 mM (inactive)"
- molecule: "O=C(O)c1ccc2nccnc2c1"
  target_desc: "Influenza A virus M2 proton channel (A/TW/4845/1999 H1N1)"
  measured_quantity: "Kd"
  value_observed: "> 4 mM (inactive)"
- molecule: "CC(=O)c1ccc(-n2ccnc2)cc1"
  target_desc: "Influenza A virus M2 proton channel (A/TW/4845/1999 H1N1)"
  measured_quantity: "Kd"
  value_observed: "> 4 mM (inactive)"
- molecule: "Cc1n[nH]c(=S)[nH]c1=O"
  target_desc: "Influenza A virus M2 proton channel (A/TW/4845/1999 H1N1)"
  measured_quantity: "Kd"
  value_observed: "> 4 mM (inactive)"
- molecule: "NC(=O)Cc1nc2ccccc2[nH]1"
  target_desc: "Influenza A virus M2 proton channel (A/TW/4845/1999 H1N1)"
  measured_quantity: "Kd"
  value_observed: "> 4 mM (inactive)"
- molecule: "CS(C)=C1C(=O)NC(=O)N(c2ccccc2)C1=O"
  target_desc: "Influenza A virus M2 proton channel (A/TW/4845/1999 H1N1)"
  measured_quantity: "Kd"
  value_observed: "> 4 mM (inactive)"
- molecule: "Cc1cc(C)n(C/C=C/Cn2nc(C)cc2C)n1"
  target_desc: "Influenza A virus M2 proton channel (A/TW/4845/1999 H1N1)"
  measured_quantity: "Kd"
  value_observed: "> 4 mM (inactive)"
- molecule: "COCCn1c(N)nc2c1c(=O)[nH]c(=O)n2C"
  target_desc: "Influenza A virus M2 proton channel (A/TW/4845/1999 H1N1)"
  measured_quantity: "Kd"
  value_observed: "> 4 mM (inactive)"
- molecule: "NCc1ccc(-c2cccs2)cc1"
  target_desc: "Influenza A virus M2 proton channel (A/TW/4845/1999 H1N1)"
  measured_quantity: "Kd"
  value_observed: "> 4 mM (inactive)"
